assay: Half life in simulated gastric fluid; format: ADME
// reported half-life for each item listed
observable: half-life

1) CC1=CC[C@@]2(C=C1)[C@@H](C(=O)O)CC[C@H]2C1CCCCC1 :: > 6 h
2) CC1=CC[C@@]2(C[C@@H]1O)[C@@H](C(=O)O)CC[C@H]2C1CCCCC1 :: > 6 h
3) CC1=CC[C@@]2([C@H](O)C1)[C@@H](C(=O)O)CC[C@H]2C1CCCCC1 :: > 6 h
4) CC1=CC[C@@]2(CC1=O)[C@@H](C(=O)O)CC[C@H]2C(C)C :: > 6 h
5) CC1=CC[C@@]2(C[C@@H]1O)[C@@H](C(=O)O)CC[C@H]2C(C)C :: < 2 h
